- assay_target: intracellular GCN2 (phosphorylation of the GCN2 substrate eIF2α) (Homo sapiens, UniProt Q9P2K8)
- Sequence (Q9P2K8 whole entry): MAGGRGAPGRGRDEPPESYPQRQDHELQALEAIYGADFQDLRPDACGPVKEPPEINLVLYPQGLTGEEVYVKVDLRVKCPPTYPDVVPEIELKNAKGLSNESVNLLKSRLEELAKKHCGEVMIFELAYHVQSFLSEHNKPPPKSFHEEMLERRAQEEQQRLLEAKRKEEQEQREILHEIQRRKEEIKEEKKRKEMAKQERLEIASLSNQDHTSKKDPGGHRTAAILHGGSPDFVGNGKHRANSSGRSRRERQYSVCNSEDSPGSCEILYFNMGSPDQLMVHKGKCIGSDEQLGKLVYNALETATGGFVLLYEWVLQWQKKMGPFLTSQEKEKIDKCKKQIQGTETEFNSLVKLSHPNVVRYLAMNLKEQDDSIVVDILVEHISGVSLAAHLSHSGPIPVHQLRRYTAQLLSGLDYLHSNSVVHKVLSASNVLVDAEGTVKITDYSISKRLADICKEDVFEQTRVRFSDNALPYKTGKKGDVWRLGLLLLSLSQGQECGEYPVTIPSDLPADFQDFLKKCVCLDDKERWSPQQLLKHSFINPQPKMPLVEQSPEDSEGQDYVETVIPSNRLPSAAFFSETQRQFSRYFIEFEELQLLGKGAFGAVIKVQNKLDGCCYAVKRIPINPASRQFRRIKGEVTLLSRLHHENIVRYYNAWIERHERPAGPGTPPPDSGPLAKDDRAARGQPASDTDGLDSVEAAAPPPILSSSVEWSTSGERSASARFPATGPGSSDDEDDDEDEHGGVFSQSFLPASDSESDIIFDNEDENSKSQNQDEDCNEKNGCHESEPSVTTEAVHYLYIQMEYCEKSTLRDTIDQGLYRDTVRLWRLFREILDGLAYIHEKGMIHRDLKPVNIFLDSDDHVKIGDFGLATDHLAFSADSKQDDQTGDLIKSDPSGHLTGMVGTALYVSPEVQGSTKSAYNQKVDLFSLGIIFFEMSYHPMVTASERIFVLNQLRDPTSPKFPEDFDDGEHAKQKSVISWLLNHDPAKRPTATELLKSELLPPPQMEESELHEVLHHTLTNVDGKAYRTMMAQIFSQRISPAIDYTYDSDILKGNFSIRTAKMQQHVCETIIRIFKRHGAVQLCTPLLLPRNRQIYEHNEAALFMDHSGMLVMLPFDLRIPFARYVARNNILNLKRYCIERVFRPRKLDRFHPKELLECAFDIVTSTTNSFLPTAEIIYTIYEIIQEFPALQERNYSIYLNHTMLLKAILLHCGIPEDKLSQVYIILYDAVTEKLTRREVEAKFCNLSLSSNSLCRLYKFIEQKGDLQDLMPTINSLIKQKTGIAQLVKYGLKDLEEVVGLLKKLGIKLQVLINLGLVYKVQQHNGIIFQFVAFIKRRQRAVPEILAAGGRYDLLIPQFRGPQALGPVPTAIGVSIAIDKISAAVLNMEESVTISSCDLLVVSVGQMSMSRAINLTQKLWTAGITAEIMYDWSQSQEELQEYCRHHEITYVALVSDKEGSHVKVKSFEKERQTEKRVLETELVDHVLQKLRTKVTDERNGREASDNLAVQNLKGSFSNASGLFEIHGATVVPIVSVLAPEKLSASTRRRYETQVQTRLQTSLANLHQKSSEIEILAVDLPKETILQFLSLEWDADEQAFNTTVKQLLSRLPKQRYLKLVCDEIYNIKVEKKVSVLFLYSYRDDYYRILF
- assay_summary: GCN2 cellular inhibition assay (AlphaScreen SureFire P-eIF2α Ser51, borrelidin-treated U2OS cells)
- Format: cell-based
- settings: compounds of Formula II; biomarker assay, phosphorylated eIF2α Ser51 in borrelidin-treated U2OS cells
pIC50: −log10 of the molar value.
measured_parameter: pIC50

1. CC1CN(c2cc(-c3cnc4ccc(C(F)F)nn34)ncn2)CC1CNS(C)(=O)=O (centres unmarked) [II-18]
> 6.30
2. CNc1cc(-c2cnc3ccc(C(F)F)nn23)cc(N2CCC(F)(F)C(CNS(C)(=O)=O)C2)n1 (centres unmarked)
5.30 to 6.30
3. CS(=O)(=O)NCC1CN(c2cc(-c3cnc4ccc(C(F)F)nn34)ncn2)CCC1O (centres unmarked)
5.30 to 6.30
4. O=S(=O)(NCC1CCCN(c2cc(-c3cnc4ccc(C(F)F)nn34)ncn2)C1)C1CNC1 (centres unmarked)
< 5.30
5. CS(=O)(=O)N1CC2CCN(c3cc(-c4cnc5ccc(C(F)F)nn45)ncn3)CC21 (centres unmarked)
< 5.30

// pIC50 lookup, molecule = CC1(O)CCN(c2cc(-c3cnc4ccc(C(F)F)nn34)ncn2)CC1CNS(C)(=O)=O (centres unmarked) [II-239] , result: 5.30 to 6.30

Query CC1C(CO)OCCN1c1cc(-c2cnc3ccc(C(F)F)nn23)ncn1 (single isomer, unassigned) [II-413] yields pIC50 of < 5.30

pIC50 reported for this molecule CC1C(CO)OCCN1c1cc(-c2cnc3ccc(C(F)F)nn23)ncn1 (centres unmarked) [II-341] : < 5.30

* * *

- assay_target: GCN2 kinase (Homo sapiens)
- Sequence (Q9P2K8 whole entry): as above
- assay_summary: GCN2 enzyme inhibition assay (Transcreener ADP2 fluorescence polarization)
- Type: biochemical
- settings: Enzyme activity for compounds of Formula IV; Ki(app), 280 μM ATP, 25° C.
pKi: −log10 of the molar value.
measured_parameter: pKi

1) CC1CN(c2nccc(-c3cnc4cnc(Cl)cn34)n2)C(C)C(c2cn[nH]c2)N1 (single isomer, unassigned) [IV-407]
> 8.00
2) CC(C)(O)C1CC(c2cn[nH]c2)CN(c2ccnc(-c3cnc4cnc(C(F)(F)F)cn34)n2)C1 (single isomer, unassigned) [IV-682]
7.00 to 8.00
3) Fc1n[nH]cc1C1CCCN(c2ccnc(-c3cnc4cnc(C(F)(F)F)cn34)n2)C1 (centres unmarked) [IV-473]
> 8.00
4) NC(C1CCCN(c2ccnc(-c3cnc4cnc(C(F)(F)F)cn34)n2)C1)C(F)(F)F (centres unmarked) [IV-503]
6.00 to 7.00
5) NC(=O)CC1CCN(c2ccnc(-c3cnc4cnc(C(F)(F)F)cn34)n2)CC1
6.00 to 7.00

Log: GCN2 kinase (Homo sapiens), compound FC(F)(F)c1cn2c(-c3nccc(N4CCOC(c5ccncc5)C4)n3)cnc2cn1 (centres unmarked) , pKi = < 6.00

With GCN2 kinase (Homo sapiens) as the test system, CC1CN(c2nccc(-c3cnc4cnc(Cl)cn34)n2)C(C)C(c2cn[nH]c2)N1 (centres unmarked) [IV-382] showed pKi of 7.00 to 8.00

Entry NCCC1CCCN(c2ccnc(-c3cnc4cnc(C(F)(F)F)cn34)n2)C1 (centres unmarked) ; assay system GCN2 kinase (Homo sapiens); pKi recorded at 6.00 to 7.00
